// provenance: ChEMBL document CHEMBL5321198

- Tested on: Plasmodium falciparum
- ASSAY INFO: Antimalarial activity against chloroquine sensitive Plasmodium falciparum 3D7 infected in human erythrocytes assessed as inhibition of parasite growth incubated for 48 hrs by YOYO-1 dye based flow cytometric analysis
- Assay type: functional, organism-based
- CONDITION CONTEXT: 3D7, 48 h
Record form. Attribute: IC50. Fill in for each entry.
Numeric answer only, unit nM assumed.

stdin: For COc1ccc(NC(=O)C(c2ccc(F)c(F)c2)N2CCN(c3ncnc4sc5c(c34)CCCC5)CC2)cc1 (centres undefined) , what is its reported IC50?
stdout: 728

stdin: Please answer likewise for COc1ccc(NC(=O)C(c2ccc(F)cc2)N2CCN(c3ncnc4sc5c(c34)CCCC5)CC2)cc1 (centres undefined)
stdout: 1220

stdin: Request: COc1ccc(NC(=O)C(c2ccc(Cl)c(Cl)c2)N2CCN(c3ncnc4sc5c(c34)CCCC5)CC2)cc1 (centres undefined)
stdout: 933

stdin: Now try COc1ccc(NC(=O)C(c2ccc(OC)cc2)N2CCN(c3ncnc4sc5c(c34)CCCC5)CC2)cc1 (centres undefined) .
stdout: 698
